Target: T1, EsCas13d, nuclease-dead (Eubacterium siraeum, UniProt B0MS50, R295A;H300A;R849A;H854A)
T1 sequence: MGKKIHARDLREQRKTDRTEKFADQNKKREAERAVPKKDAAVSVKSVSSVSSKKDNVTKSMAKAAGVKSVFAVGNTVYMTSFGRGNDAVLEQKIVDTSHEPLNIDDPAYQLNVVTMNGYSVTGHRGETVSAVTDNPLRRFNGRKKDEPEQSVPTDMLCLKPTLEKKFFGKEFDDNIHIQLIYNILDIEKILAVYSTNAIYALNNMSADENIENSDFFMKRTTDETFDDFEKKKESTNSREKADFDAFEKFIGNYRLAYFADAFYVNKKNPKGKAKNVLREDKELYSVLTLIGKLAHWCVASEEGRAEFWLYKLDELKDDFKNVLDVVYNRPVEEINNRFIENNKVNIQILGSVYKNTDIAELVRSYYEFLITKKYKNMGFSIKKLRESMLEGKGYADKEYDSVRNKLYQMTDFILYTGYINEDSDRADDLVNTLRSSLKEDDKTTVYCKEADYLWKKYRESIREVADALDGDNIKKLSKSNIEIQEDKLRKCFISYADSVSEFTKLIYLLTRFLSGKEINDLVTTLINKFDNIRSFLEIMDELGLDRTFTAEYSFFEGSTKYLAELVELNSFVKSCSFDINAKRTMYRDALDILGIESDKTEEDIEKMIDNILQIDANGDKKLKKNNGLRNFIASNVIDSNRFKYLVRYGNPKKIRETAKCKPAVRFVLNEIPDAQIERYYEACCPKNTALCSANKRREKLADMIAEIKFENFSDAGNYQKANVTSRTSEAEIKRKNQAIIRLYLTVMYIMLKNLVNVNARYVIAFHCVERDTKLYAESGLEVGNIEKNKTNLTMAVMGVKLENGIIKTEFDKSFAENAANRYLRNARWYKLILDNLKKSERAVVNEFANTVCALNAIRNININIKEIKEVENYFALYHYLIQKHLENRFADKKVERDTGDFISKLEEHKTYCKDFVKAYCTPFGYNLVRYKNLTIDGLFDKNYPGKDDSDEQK
Experiment: crRNA (strand 1, pre-loaded); Mg2+; 40 mM Tris-HCl pH 7.5, 150 mM NaCl, 6 mM MgCl2, 1 mM DTT, 0.1% Tween-20, 0.2 mg/ml BSA; 25 C; 10 min per concentration, then washed
Details: tags: His6-TwinStrep-SUMO cleaved; N-terminal SNAP kept (SNAP-Surface 488); label: 3' end held by stalled T7 RNA polymerase
pKd: −log10 of the molar value.
Would you mind labelling by pKd? At or over 8 is condition met, under is condition not met.

Example results:
1) target 1 C2A,A18G (mixed) RNA 1: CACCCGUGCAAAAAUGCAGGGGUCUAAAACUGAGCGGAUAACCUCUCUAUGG RNA 2: GGGAAUGGAUCCACAUCUACGAAUUCGUACCAUGGAGAGGUUAUCCGCUAACCGAGAUCGGAAGAGCACACGU :: condition not met
2) target 2 MT 5'PFS AAU 3'PFS AGA (mixed) RNA 1: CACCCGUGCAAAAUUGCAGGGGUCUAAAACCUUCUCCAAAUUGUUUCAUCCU RNA 2: GGGAAUGGAUCCACAUCUACGAAUUCAAUAGGAUGAAACAAUUUGGAGAAGAGAAGAUCGGAAGAGCACACGU :: condition met
3) target 1 MT 5'PFS GCC 3'PFS UAG (mixed) RNA 1: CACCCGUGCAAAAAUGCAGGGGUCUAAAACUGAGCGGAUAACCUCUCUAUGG RNA 2: GGGAAUGGAUCCACAUCUACGAAUUCGCCCCAUAGAGAGGUUAUCCGCUCAUAGAGAUCGGAAGAGCACACGU :: condition not met

Tell me whether pKd is at least 8 here: target 3 G3C,U21A (mixed) RNA 1: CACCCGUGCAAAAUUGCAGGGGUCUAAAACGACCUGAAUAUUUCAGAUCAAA RNA 2: GGGAAUGGAUCCACAUCUACGAAUUCGUUUAUGAUCUGAAAUAUUCAGCUCUGCAGAUCGGAAGAGCACACGU condition not met

Please check the record target 1 insA 3' of 21,insC 3' of 15 (mixed) RNA 1: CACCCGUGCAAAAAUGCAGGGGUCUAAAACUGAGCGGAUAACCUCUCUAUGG RNA 2: GGGAAUGGAUCCACAUCUACGAAUUCGUACCAAUAGAGCAGGUUAUCCGCUCACCGAGAUCGGAAGAGCACACGU and state if its pKd is at or above 8. condition not met
